The origin of these recorded values is the supplement of paper PMC10724198.

system: Saccharomyces cerevisiae; experiment: protein stability index of tFT-peptide fusion (C-terminal peptide) (PSI (0-1 scale)); higher = more stable (slower turnover); conditions: genetic background: wild type; temperature: 30 C
Criterion: protein stability index meeting or surpassing 0.7. Met: condition met. Not met: condition not met.

Here are 4 sequences together with their reported answers.
| entry.sequence | tested.on | category |
| --- | --- | --- |
| LCLGVLRSDCVV | Saccharomyces cerevisiae | condition not met |
| FFFVLVSGWWGV | Saccharomyces cerevisiae | condition not met |
| RLSVWTFCSMVW | Saccharomyces cerevisiae | condition not met |
| RGWWVLCGGGGG | Saccharomyces cerevisiae | condition not met |

Task item: Entry `PRASDPPPSPYP` : is its protein stability index no less than 0.7?
Reply: condition met

Task item: Entry `VREFRRAVFVGS` : is its protein stability index no less than 0.7?
Reply: condition not met

Task item: Entry `LFVEFFACRSFN` : is its protein stability index no less than 0.7?
Reply: condition met

Task item: Entry `DRNGKIGTFKKV` : is its protein stability index no less than 0.7?
Reply: condition met

Task item: Entry `WNQRMEPCLMSS` : is its protein stability index no less than 0.7?
Reply: condition not met

Task item: Entry `HSPASLPHLSGK` : is its protein stability index no less than 0.7?
Reply: condition met

Task item: Entry `FVIAGDLYGLYV` : is its protein stability index no less than 0.7?
Reply: condition not met

Task item: Entry `VAGGLRGLGLRA` : is its protein stability index no less than 0.7?
Reply: condition not met

Task item: Entry `FCVFFSGLCCWV` : is its protein stability index no less than 0.7?
Reply: condition not met

###

test system: Saccharomyces cerevisiae; test: protein stability index of tFT-peptide fusion (C-terminal peptide) (PSI (0-1 scale)); higher = more stable (slower turnover); conditions: genetic background: das1 deletion; temperature: 30 C
Criterion: protein stability index meeting or surpassing 0.7. Met: T. Not met: F.

Here are 3 sequences together with their reported answers.
| entry.sequence | category |
| --- | --- |
| SFRPKSSNNPFR [ENT4 C-terminal 12 aa] | T |
| IIGALNLYDGLI [FRQ1 C-terminal 12 aa] | T |
| IELWETFYQTNL [VPS5 C-terminal 12 aa] | T |

Task item: Entry LGFYYIYTLHRA [ERG9 C-terminal 12 aa] : is its protein stability index no less than 0.7?
Reply: F

Task item: Entry RLIFYPDEYEQL [PRE3 C-terminal 12 aa] : is its protein stability index no less than 0.7?
Reply: T

Task item: Entry DKAAPALKKVKM [SFL1 C-terminal 12 aa] : is its protein stability index no less than 0.7?
Reply: F

Task item: Entry FTNQKLAKLEVR [YMR141C C-terminal 12 aa] : is its protein stability index no less than 0.7?
Reply: F

Task item: Entry NHSSSGNKHDEL [MPD1 C-terminal 12 aa] : is its protein stability index no less than 0.7?
Reply: F

###

Attribute: protein stability index
test system: Saccharomyces cerevisiae; assay: protein stability index of tFT-peptide fusion (C-terminal peptide) (PSI (0-1 scale)); higher = more stable (slower turnover); conditions: genetic background: wild type; temperature: 30 C
Lab note: jot the number down without any unit.

The following sequences have reported results that may help.
| entry.sequence | reported.property | assay.result |
| --- | --- | --- |
| LLLVPLLAFSAS | protein stability index | 0.521 |
| PPCLPPASRPVL | protein stability index | 0.699 |
| VVRCVLSQKCLV | protein stability index | 0.578 |

The measured protein stability index that `VREGTKDGGSRV` showed for Saccharomyces cerevisiae is 0.544

The measured protein stability index that `GGGWGWAGENTR` showed for Saccharomyces cerevisiae is 0.698

The measured protein stability index that `PPATTSATRVRP` showed for Saccharomyces cerevisiae is 0.698

The measured protein stability index that `VCRGWGVCGEWG` showed for Saccharomyces cerevisiae is 0.624

The measured protein stability index that `GGGGGGGGSLRV` showed for Saccharomyces cerevisiae is 0.663

The measured protein stability index that `LLRFRSFPSAFF` showed for Saccharomyces cerevisiae is 0.723

The measured protein stability index that `WGWGVGWSGACL` showed for Saccharomyces cerevisiae is 0.712

The measured protein stability index that `KKKFNNFIKIIH` showed for Saccharomyces cerevisiae is 0.631

The measured protein stability index that `RGRWGGGRVVRG` showed for Saccharomyces cerevisiae is 0.694

The measured protein stability index that `SPPSFFRATRSN` showed for Saccharomyces cerevisiae is 0.644
